// provenance: patent US20250333407A1

TARGET_OF_ASSAY: ZBTB7A (Homo sapiens, UniProt O95365+Q96SW2)
Construct: HUDEP-2 cells engineered to express a HiBiT tag in either the WIZ (Widely interspaced zinc finger) or ZBTB7A
Sequence (O95365 whole entry): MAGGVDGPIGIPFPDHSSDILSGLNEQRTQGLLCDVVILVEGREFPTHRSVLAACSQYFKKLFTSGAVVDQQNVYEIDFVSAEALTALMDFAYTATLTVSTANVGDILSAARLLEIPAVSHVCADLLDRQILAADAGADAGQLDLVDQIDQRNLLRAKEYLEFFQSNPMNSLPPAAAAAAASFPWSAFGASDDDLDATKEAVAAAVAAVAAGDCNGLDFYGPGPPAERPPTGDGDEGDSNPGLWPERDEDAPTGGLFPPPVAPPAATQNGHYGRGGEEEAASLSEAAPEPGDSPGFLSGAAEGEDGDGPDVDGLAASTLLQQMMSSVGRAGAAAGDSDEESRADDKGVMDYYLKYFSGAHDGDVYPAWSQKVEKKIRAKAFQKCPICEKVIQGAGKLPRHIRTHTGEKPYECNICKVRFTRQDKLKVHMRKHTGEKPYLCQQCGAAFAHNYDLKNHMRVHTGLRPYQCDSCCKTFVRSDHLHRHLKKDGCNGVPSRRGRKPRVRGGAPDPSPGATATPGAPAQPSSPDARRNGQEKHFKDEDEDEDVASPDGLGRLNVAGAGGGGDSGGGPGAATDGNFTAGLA
Sequence (Q96SW2 whole entry): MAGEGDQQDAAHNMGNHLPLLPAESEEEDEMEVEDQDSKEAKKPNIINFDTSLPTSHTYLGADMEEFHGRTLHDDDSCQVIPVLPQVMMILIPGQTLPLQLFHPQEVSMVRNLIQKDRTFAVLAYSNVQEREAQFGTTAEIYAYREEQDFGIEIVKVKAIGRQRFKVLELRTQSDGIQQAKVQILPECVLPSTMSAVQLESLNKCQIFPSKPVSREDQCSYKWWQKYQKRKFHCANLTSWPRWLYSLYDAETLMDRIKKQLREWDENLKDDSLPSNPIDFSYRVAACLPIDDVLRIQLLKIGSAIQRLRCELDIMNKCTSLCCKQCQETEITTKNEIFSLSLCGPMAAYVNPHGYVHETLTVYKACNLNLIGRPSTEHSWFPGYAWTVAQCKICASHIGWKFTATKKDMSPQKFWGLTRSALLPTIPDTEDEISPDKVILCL
Sequence (Q16531 whole entry partner): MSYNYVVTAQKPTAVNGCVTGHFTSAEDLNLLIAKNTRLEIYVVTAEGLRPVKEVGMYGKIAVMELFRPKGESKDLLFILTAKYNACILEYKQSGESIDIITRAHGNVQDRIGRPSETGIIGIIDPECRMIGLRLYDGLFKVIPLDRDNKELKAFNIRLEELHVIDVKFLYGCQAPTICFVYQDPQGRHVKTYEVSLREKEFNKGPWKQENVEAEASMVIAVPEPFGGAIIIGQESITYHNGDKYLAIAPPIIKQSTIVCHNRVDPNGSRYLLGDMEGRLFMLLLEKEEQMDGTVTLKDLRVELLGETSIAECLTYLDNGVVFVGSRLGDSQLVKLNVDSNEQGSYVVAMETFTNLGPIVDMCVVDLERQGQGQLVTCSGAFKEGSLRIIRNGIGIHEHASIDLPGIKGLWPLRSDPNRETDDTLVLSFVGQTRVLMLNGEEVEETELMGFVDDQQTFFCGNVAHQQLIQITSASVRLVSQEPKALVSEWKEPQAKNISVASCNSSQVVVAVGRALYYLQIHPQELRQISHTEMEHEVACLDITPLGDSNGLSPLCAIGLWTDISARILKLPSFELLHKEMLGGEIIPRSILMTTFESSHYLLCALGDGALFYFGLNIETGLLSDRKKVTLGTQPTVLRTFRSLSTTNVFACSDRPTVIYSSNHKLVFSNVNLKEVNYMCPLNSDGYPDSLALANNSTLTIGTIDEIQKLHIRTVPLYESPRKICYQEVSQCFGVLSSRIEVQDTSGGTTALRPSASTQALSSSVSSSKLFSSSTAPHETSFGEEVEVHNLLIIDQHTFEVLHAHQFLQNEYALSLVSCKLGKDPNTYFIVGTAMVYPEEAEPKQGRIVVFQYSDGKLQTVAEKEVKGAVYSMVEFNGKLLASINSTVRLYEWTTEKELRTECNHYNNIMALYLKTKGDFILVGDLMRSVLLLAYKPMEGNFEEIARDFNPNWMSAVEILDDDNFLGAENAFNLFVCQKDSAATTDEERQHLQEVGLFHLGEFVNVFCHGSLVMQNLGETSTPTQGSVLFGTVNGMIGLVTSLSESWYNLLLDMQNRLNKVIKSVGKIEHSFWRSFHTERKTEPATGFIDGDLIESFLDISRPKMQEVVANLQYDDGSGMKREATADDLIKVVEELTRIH
ASSAY_EXPLANATION: HUDEP-2 ZBTB7A HiBiT degradation assay
Format: cell-based
MEASUREMENT_PARAMETERS: HiBiT-tagged ZBTB7A degradation in HUDEP-2 cells, 24 hours of treatment; read-out: ZBTB7A EC50
MEASUREMENT_LABEL: DC50 (nM)

COMPOUND | DC50 (nM)
Cc1cc(-c2c(Nc3cccc4c3C(=O)N([C@H]3CCC(=O)NC3=O)C4=O)cc3c(c2F)CCC(=O)N3C)ccn1 | 24

[1] Cc1cc(-c2cc3c(cc2Nc2cccc4c2C(=O)N([C@H]2CCC(=O)NC2=O)C4=O)N(C)C(=O)[C@H](C)O3)cc(C(F)F)n1
[2] Cc1cc(-c2cc3c(cc2Nc2cccc4c2C(=O)N(C2CCC(=O)NC2=O)C4=O)N(C)S(=O)(=O)CC3)ccn1 (stereo not drawn)
Query block: Higher DC50 between 1 and 2 ? The response must carry the label of the picked entry.
Result block: 1
(1: 52 nM, 2: 28 nM)

---

TARGET_OF_ASSAY: WIZ (Homo sapiens, UniProt O95785+Q96SW2)
Construct: HUDEP-2 cells engineered to express a HiBiT tag in either the WIZ (Widely interspaced zinc finger) or ZBTB7A
Sequence (O95785 whole entry): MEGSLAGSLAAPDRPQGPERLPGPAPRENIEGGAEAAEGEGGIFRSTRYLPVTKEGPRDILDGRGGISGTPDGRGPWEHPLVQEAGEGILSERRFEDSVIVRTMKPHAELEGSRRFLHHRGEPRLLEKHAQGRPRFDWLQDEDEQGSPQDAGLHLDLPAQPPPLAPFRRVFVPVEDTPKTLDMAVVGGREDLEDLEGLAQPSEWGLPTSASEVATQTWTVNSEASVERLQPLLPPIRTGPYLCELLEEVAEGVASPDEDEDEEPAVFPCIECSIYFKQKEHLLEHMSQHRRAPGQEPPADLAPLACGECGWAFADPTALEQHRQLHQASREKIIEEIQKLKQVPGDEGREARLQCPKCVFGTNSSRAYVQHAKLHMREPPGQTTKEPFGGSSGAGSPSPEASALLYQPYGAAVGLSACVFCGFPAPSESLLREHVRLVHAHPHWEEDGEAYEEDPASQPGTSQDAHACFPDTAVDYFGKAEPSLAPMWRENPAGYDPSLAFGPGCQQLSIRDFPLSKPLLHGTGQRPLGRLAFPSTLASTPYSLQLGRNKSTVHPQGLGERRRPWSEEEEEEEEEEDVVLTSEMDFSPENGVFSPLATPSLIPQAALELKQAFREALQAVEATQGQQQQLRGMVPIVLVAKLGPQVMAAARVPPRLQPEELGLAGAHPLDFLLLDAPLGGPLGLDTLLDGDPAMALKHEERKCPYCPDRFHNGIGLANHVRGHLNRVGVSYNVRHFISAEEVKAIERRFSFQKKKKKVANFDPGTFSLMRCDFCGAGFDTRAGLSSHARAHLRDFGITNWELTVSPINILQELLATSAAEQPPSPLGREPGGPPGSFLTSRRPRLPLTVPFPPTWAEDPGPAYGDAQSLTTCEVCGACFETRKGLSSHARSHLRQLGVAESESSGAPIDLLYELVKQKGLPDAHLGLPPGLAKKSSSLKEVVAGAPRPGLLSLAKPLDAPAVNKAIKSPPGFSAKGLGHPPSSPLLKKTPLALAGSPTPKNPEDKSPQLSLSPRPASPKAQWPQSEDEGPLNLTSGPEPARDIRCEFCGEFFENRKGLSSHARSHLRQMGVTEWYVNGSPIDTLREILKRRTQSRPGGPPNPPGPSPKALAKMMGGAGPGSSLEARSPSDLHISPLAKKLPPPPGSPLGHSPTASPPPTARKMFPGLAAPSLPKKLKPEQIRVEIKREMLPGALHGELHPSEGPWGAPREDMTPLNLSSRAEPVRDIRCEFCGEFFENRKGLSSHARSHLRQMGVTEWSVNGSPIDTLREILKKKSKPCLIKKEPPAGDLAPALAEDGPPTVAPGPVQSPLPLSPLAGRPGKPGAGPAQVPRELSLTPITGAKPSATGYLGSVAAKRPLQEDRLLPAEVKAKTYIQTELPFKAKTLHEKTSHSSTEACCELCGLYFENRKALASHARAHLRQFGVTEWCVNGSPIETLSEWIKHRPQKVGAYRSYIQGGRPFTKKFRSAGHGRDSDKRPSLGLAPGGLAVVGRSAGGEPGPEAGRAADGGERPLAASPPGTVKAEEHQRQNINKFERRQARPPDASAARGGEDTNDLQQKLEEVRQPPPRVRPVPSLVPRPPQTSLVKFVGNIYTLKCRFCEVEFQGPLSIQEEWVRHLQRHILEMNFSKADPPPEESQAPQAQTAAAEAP
Sequence (Q96SW2 whole entry): as the sequence (Q96SW2 whole entry) above
Sequence (Q16531 whole entry partner): as the sequence (Q16531 whole entry partner) above
ASSAY_EXPLANATION: HUDEP-2 WIZ HiBiT degradation assay
Type: cell-based
MEASUREMENT_PARAMETERS: HiBiT-tagged WIZ degradation in HUDEP-2 cells, 24 hours of treatment; read-out: WIZ EC50
Protocol: WIZ Assay and ZBTB7A EC50 Assays. The HiBiT degradation assays for WIZ and ZBTB7A in HUDEP-2 cells were performed as described below. […] Prior to start of the assay, cell count and viability were measured by trypan blue exclusion using the Vi-cell XR cell viability analyzer. […]
MEASUREMENT_LABEL: DC50 (nM)

COMPOUND | TARGET_OF_ASSAY | MEASUREMENT_LABEL | TEST_VALUE
Cc1cc(-c2cc3c(cc2Nc2cccc4c2C(=O)N(C2CCC(=O)NC2=O)C4=O)N(C)CCO3)ccn1 (centres unmarked) | WIZ (Homo sapiens, UniProt O95785+Q96SW2) | DC50 | 21
COc1nccc(-c2cc3oc(=O)n(C)c3cc2Nc2cccc3c2C(=O)N(C2CCC(=O)NC2=O)C3=O)c1F (centres unmarked) | WIZ (Homo sapiens, UniProt O95785+Q96SW2) | DC50 | 41
Cc1cc(-c2c(Nc3cccc4c3C(=O)N(C3CCC(=O)NC3=O)C4=O)cc3c(c2F)OCC(=O)N3C)ccn1 (centres unmarked) [Compound 81] | WIZ (Homo sapiens, UniProt O95785+Q96SW2) | DC50 | 24
CCO[C@H]1CC[C@H](c2cc3c(cc2Nc2cccc4c2C(=O)N([C@H]2CCC(=O)NC2=O)C4=O)N(C)C(=O)[C@H](C)O3)CC1 | WIZ (Homo sapiens, UniProt O95785+Q96SW2) | DC50 | 2
COc1cc(-c2cc3c(cc2Nc2cccc4c2C(=O)N([C@H]2CCC(=O)NC2=O)C4=O)N(C)C(=O)[C@H](C)O3)c(F)cn1 | WIZ (Homo sapiens, UniProt O95785+Q96SW2) | DC50 | 5

[A] Cc1cc(-c2c(Nc3cccc4c3C(=O)N([C@H]3CCC(=O)NC3=O)C4=O)cc3c(c2F)CCC(=O)N3C)ccn1
[B] CCO[C@H]1CC[C@H](c2cc3c(cc2Nc2cccc4c2C(=O)N([C@H]2CCC(=O)NC2=O)C4=O)N(C)C(=O)CO3)CC1
[C] CCO[C@H]1CC[C@H](c2cc3c(cc2Nc2cccc4c2C(=O)N([C@@H]2CCC(=O)NC2=O)C4=O)N(C)C(=O)[C@H](C)O3)CC1
[D] CCN1C(=O)COc2cc(-c3cc(C)nc(C)c3)c(Nc3cccc4c3C(=O)N(C3CCC(=O)NC3=O)C4=O)cc21 (centres unmarked)
Query block: Reorder: DC50, max to min. Give the order by naming the labels one after another as requested.
Result block: D, A, C, B
(D: 20 nM, A: 14 nM, C: 6 nM, B: 4 nM)
